Cited source: patent EP0327365B1

Test system: T-380 tumors
METHOD: Hapten biodistribution, premix protocol with bifunctional antibody ECH037.2
Assay type: in vivo, nude mice
TEST_PARAMETERS: 24 hours; premix with 20 µg ECH037.2
QUANTITY_MEASURED: % DOSE PER GRAM, TUMOR (% DOSE PER GRAM)

• O=C(O)Cc1ccc(NC(=S)Nc2ccc(CC(CN(CC(=O)O)CC(=O)O)N(CC(=O)O)CC(=O)O)cc2)cc1 (centres unmarked) [PHATUBE] = 8.4

a = CCNC(=S)Nc1ccc(CC(CN(CC(=O)O)CC(=O)O)N(CC(=O)O)CC(=O)O)cc1 (centres unmarked) [ETUBE]
b = O=C(O)CN(CC(=O)O)CC(Cc1ccc(NC(=S)NCCO)cc1)N(CC(=O)O)CC(=O)O (centres unmarked) [EOTUBE]
Hi, I'm comparing a with b and wondering which one has the bigger number for % DOSE PER GRAM, TUMOR. Any idea? Indicate which entry you chose by stating its label.
b

###

System: T-380 tumors
METHOD: Hapten biodistribution, premix protocol with bifunctional antibody ECH037.2
Type: in vivo, nude mice
Parameters: unit not given here
TEST_PARAMETERS: 24 hours; premix with 20 µg ECH037.2
QUANTITY_MEASURED: TOTAL RECOV

- O=C(O)CN(CC(=O)O)CC(Cc1ccc(NC(=S)NCc2ccccc2)cc1)N(CC(=O)O)CC(=O)O (centres unmarked) [BETUBE]: 44.6
- NCCNC(=S)Nc1ccc(CC(CN(CC(=O)O)CC(=O)O)N(CC(=O)O)CC(=O)O)cc1 (centres unmarked) [NUBE]: 66.3
- CCNC(=S)Nc1ccc(CC(CN(CC(=O)O)CC(=O)O)N(CC(=O)O)CC(=O)O)cc1 (centres unmarked) [ETUBE]: 52.2
- O=C(O)CCNC(=S)Nc1ccc(CC(CN(CC(=O)O)CC(=O)O)N(CC(=O)O)CC(=O)O)cc1 (centres unmarked) [PATUBE]: 53.7
- NC(=S)Nc1ccc(CC(CN(CC(=O)O)CC(=O)O)N(CC(=O)O)CC(=O)O)cc1 (centres unmarked) [TUBE]: 48.2

###

Test system: T-380 tumors
METHOD: Hapten biodistribution, premix protocol with bifunctional antibody ECH037.2
Assay type: in vivo, nude mice
TEST_PARAMETERS: 48 hours; premix with 20 µg ECH037.2
QUANTITY_MEASURED: URINE

// below: answered compounds
- O=C(O)CN(CC(=O)O)CC(Cc1ccc(NC(=S)Nc2ccccc2)cc1)N(CC(=O)O)CC(=O)O (centres unmarked): 24.5% of total injected dose
- O=C(O)Cc1ccc(NC(=S)Nc2ccc(CC(CN(CC(=O)O)CC(=O)O)N(CC(=O)O)CC(=O)O)cc2)cc1 (centres unmarked): 22.4% of total injected dose
- O=C(O)CCNC(=S)Nc1ccc(CC(CN(CC(=O)O)CC(=O)O)N(CC(=O)O)CC(=O)O)cc1 (centres unmarked): 36.0% of total injected dose
- CCNC(=S)Nc1ccc(CC(CN(CC(=O)O)CC(=O)O)N(CC(=O)O)CC(=O)O)cc1 (centres unmarked): 36.0% of total injected dose
- CC(=O)NC(CCCCNC(=S)Nc1ccc(CC(CN(CC(=O)O)CC(=O)O)N(CC(=O)O)CC(=O)O)cc1)C(N)=O (centres unmarked): 26.5% of total injected dose
- O=C(O)CN(CC(=O)O)CC(Cc1ccc(NC(=S)NCCO)cc1)N(CC(=O)O)CC(=O)O (centres unmarked): 49.3% of total injected dose

Value of measured URINE for the entry CCCCNC(=S)Nc1ccc(CC(CN(CC(=O)O)CC(=O)O)N(CC(=O)O)CC(=O)O)cc1 (centres unmarked) : 27.0% of total injected dose

For O=C(O)CN(CC(=O)O)CC(Cc1ccc(NC(=S)NCc2ccccc2)cc1)N(CC(=O)O)CC(=O)O (centres unmarked) the compound record lists URINE as 12.0% of total injected dose
